Biological target: human recombinant serotonin 5-HT2A receptor (Homo sapiens, UniProt P28223)
Construct: purchased PerkinElmer Life and Analytical Sciences, USA; host or cells: CHO-K1
Sequence (P28223 whole entry): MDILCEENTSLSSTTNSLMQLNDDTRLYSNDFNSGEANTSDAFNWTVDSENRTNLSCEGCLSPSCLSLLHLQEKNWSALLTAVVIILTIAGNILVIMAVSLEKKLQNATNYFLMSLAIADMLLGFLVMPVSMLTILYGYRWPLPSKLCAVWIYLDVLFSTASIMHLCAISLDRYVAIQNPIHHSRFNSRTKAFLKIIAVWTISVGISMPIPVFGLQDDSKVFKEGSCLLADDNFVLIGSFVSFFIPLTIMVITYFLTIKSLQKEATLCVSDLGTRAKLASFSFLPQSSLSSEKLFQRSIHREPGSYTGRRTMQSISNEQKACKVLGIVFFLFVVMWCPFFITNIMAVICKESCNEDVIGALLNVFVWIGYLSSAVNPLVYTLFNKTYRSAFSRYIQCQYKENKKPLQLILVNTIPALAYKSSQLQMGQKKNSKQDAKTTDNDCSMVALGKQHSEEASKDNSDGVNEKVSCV
Experiment: Binding affinity for serotonin 5-HT2A receptor ([3H]Ketanserin)
Conditions: CHO-K1 expressed receptor, 1 nM [3H]Ketanserin
Procedure: Receptor binding affinities of the compounds for serotonin receptors were measured by the method described in the literature [Park W K et al., Pharmacol Biochem Behav. 2005, 82(2), 361-372]. […] The binding affinity (IC50) of a compound for the receptor was calculated by computerized nonlinear regression analysis (GraphPad Prism Program, San Diego, USA) using 7-8 varied concentrations of the compound run in duplicate tubes.
Counter-ions that a name gives are not always drawn.
Kindly supply the reported log10(IC50) values for the records listed here.
Scale type: logarithmic (base 10). Underlying IC50 unit: nM.

Consider the following illustrative entries.
[
  {
    "molecule": "CCCn1c(-c2cccc(OC)c2)cc(C(=O)NCCCN2CCN(c3cccc(Cl)c3Cl)CC2)c1C [Example 82, hydrochloride]",
    "quantitative-result": 2.14
  },
  {
    "molecule": "Cc1[nH]c(-c2ccccc2)cc1C(=O)NCCCCN1CCN(c2cccc(Cl)c2Cl)CC1 [Example 41, hydrochloride]",
    "quantitative-result": 1.11
  },
  {
    "molecule": "CCCCn1c(-c2ccccc2)cc(C(=O)NCCCN2CCN(c3cccc(Cl)c3Cl)CC2)c1C [Example 71, hydrochloride]",
    "quantitative-result": 2.27
  },
  {
    "molecule": "Cc1c(Cl)cccc1N1CCN(CCCNC(=O)c2cc(C)n(-c3ccccc3)c2C)CC1",
    "quantitative-result": 2.23
  },
  {
    "molecule": "Cc1[nH]c(-c2ccccc2)c(C)c1C(=O)NCCCN1CCN(c2cccc(Cl)c2Cl)CC1 [Example 77, hydrochloride]",
    "quantitative-result": 1.59
  }
]

Provide reported log10(IC50) for each item, in the same order as listed.
1. CCCn1c(-c2ccccc2)cc(C(=O)NCCCCN2CCN(c3cccc(C)c3C)CC2)c1C [Example 33, hydrochloride]
2. Cc1ccc2cccc(N3CCN(CCNC(=O)c4cc(-c5ccccc5)n(C)c4C)CC3)c2n1
3. Cc1cccc(N2CCN(CCCNC(=O)c3cc(-c4ccc(Cl)cc4)[nH]c3C)CC2)c1C [Example 44, hydrochloride]

[out]
1. 2.90
2. 2.88
3. 1.96

Provide reported log10(IC50) for each item, in the same order as listed.
1. Cc1c(C(=O)NCCCN2CCN(c3cccc(Cl)c3Cl)CC2)cc(-c2ccccc2)n1C
2. CCCn1c(C)c(C(=O)NCCCN2CCN(c3cccc(Cl)c3Cl)CC2)c(C)c1-c1ccccc1 [Example 81, hydrochloride]
3. Cc1[nH]c(-c2ccc(Cl)cc2)cc1C(=O)NCCCCN1CCN(c2cccc(Cl)c2Cl)CC1 [Example 47, hydrochloride]
4. CCCn1c(-c2ccccc2)cc(C(=O)NCCCN2CCN(c3ccccc3OC)CC2)c1C

[out]
[1.66, 1.40, 1.75, 2.98]

###

Kindly supply the reported pIC50 values for the records listed here.
target: human recombinant serotonin 5-HT2A receptor (Homo sapiens); assay: Binding affinity for serotonin 5-HT2A receptor ([3H]Ketanserin); conditions: CHO-K1 expressed receptor, 1 nM [3H]Ketanserin
Counter-ions that a name gives are not always drawn.
Give bare numbers, as −log10 of the molar value.

Consider the following illustrative entries.
[
  {
    "compound": "O=C(NCCCN1CCN(c2cccc(Cl)c2Cl)CC1)c1cc(-c2ccccc2)[nH]c1Cl",
    "assay-system": "human recombinant serotonin 5-HT2A receptor (Homo sapiens)",
    "pIC50": 7.66
  },
  {
    "compound": "Cc1c(C(=O)NCCCN2CCN(c3cccc(Cl)c3Cl)CC2)cc(-c2ccccc2)n1Cc1ccccc1",
    "assay-system": "human recombinant serotonin 5-HT2A receptor (Homo sapiens)",
    "pIC50": 6.45
  },
  {
    "compound": "CCn1c(-c2ccccc2)cc(C(=O)NCCN2CCN(c3cccc(Cl)c3Cl)CC2)c1C [Example 49, hydrochloride]",
    "assay-system": "human recombinant serotonin 5-HT2A receptor (Homo sapiens)",
    "pIC50": 7.00
  }
]

Provide reported pIC50 for each item, in the same order as listed.
1. CCCn1c(-c2ccccc2)cc(C(=O)NCCCN2CCN(c3ccccc3Br)CC2)c1C
2. Cc1[nH]c(-c2ccccc2)cc1C(=O)NCCCN1CCN(c2cccc(Cl)c2)CC1
3. Cc1c(C(=O)NCCCN2CCN(c3cccc(Cl)c3Cl)CC2)cc(-c2ccccc2)n1CC(C)C
4. CCCn1c(-c2ccccc2)cc(C(=O)NCCCN2CCN(c3cccc(OC)c3OC)CC2)c1C
5. Cc1[nH]c(-c2ccccc2)c(C)c1C(=O)NCCCCN1CCN(c2cccc(Cl)c2Cl)CC1 [Example 78, hydrochloride]

[out]
6.66
6.61
6.39
6.06
7.72
